Study Target: bovine cardiac myofibrils (full-length cardiac myosin ATPase in the native sarcomere) (Bos taurus (Bovine), UniProt Q9BE39)
Sequence (Q9BE39 whole entry): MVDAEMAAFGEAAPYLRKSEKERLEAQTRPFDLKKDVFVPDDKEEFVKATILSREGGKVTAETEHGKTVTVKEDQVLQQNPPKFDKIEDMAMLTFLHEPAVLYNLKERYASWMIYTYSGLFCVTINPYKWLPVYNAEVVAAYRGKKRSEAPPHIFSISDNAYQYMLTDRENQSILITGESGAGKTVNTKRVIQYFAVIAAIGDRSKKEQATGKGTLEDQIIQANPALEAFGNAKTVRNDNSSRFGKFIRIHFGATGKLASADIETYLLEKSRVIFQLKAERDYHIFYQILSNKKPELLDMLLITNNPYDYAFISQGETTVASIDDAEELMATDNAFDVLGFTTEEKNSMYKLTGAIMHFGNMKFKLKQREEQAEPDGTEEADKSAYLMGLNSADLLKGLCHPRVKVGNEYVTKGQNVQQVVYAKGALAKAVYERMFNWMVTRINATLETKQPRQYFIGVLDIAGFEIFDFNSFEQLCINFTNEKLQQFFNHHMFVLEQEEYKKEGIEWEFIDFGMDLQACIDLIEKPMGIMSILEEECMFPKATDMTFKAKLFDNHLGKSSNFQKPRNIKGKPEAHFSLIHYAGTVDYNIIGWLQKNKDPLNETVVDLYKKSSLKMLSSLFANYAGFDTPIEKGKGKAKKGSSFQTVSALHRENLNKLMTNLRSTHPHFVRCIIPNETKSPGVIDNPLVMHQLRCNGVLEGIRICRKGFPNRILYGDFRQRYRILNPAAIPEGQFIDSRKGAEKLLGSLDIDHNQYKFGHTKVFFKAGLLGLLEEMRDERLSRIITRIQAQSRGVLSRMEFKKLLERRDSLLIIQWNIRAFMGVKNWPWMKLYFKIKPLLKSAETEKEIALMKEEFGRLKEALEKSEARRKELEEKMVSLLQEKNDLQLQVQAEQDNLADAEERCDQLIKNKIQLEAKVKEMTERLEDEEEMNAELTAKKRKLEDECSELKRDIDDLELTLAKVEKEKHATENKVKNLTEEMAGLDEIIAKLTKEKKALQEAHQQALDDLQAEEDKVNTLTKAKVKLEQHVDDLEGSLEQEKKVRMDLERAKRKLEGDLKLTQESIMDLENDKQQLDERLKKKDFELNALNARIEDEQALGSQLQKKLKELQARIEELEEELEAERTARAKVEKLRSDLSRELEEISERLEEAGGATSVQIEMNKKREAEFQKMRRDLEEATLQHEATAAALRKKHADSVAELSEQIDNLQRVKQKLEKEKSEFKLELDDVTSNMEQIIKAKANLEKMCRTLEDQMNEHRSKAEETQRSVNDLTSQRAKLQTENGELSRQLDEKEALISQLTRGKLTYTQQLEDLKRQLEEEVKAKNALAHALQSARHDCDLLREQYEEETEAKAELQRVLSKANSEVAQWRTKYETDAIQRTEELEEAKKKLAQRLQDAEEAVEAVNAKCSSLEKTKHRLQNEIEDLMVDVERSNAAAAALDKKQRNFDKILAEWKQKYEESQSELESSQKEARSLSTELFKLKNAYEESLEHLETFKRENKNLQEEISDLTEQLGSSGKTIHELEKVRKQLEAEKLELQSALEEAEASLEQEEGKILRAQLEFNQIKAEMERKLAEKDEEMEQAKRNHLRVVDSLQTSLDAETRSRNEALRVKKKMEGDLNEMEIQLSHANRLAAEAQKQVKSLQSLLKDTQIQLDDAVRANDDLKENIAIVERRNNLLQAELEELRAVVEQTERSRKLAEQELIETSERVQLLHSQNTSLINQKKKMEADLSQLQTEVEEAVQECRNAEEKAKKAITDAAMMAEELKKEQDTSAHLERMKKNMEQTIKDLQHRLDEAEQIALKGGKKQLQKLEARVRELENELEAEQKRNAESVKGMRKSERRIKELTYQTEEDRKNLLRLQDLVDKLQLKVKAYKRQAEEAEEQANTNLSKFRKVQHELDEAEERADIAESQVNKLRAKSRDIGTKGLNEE
Sequence (P85100 whole entry partner): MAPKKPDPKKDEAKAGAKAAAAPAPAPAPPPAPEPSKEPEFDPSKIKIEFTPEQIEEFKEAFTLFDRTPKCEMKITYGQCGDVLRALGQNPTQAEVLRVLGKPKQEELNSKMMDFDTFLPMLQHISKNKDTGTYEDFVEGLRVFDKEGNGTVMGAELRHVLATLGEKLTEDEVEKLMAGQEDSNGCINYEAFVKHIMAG
Sequence (Q3SZE5 whole entry partner): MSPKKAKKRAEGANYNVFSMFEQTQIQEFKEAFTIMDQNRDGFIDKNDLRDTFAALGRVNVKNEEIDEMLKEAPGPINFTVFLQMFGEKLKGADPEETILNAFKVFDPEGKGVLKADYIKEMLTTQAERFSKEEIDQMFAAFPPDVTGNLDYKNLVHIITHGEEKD
Experiment Notes: Skinned bovine cardiac myofibril ATPase assay (PK/LDH-coupled)
Recorded Conditions: Ca2+ activating to 75% of maximal rate, read-out: CDMF75 IC50
pIC50: −log10 of the molar value.
Measured Property: pIC50

In [3]: df
Out[3]:
                                   compound  measured_property  meas_value
0  CCc1nc(-c2ccc3c(c2)CC[C@H]3NC(=O)C2(C)CC2)no1              pIC50        5.15
1  Cc1nc(-c2ccc3c(c2)CCC3NC(=O)c2ncccc2C)no1 (centres unmarked)              pIC50        4.55
2  CCc1nc(-c2ccc3c(c2)CC[C@H]3NC(=O)c2ncco2)no1              pIC50        5.68
3  Cc1ncc(C(=O)N[C@@H]2COc3cc(-c4noc(C(F)F)n4)ccc32)o1              pIC50        5.64
4  CCc1nc(-c2ccc3c(c2)CC[C@H]3NC(=O)c2cnn(C)c2C)no1 [Compound 570]              pIC50        5.85

----------
Study Target: bovine cardiac myofibrils (full-length cardiac myosin ATPase in the native sarcomere) (Bos taurus (Bovine))
Experiment Notes: Skinned bovine cardiac myofibril ATPase assay (PK/LDH-coupled)
Assay type: biochemical
Recorded Conditions: Ca2+ activating to 75% of maximal rate, concentration giving 15% inhibition
CDMF75 IC15 of 600 nM or higher: 1.0. Under 600 nM: 0.0.

>>> df
                                   compound  qualitative_label
0  [2H]C([2H])([2H])c1nc(-c2ccc3c(c2)CC[C@H]3NC(=O)c2cnn(CCO)c2)no1                1.0
1  COCc1nc(-c2ccc3c(c2)CC[C@H]3NC(=O)C(F)F)no1                1.0
2  CCc1nc(-c2ccc3c(c2)CC[C@H]3NC(=O)OCC2CN(C(=O)NC)C2)no1                1.0
3  Cc1nc(-c2ccc3c(c2)CC[C@H]3NC(=O)c2oncc2C)no1                0.0
4  CCc1nc(-c2ccc3c(c2)CC[C@H]3NC(=O)c2cc(OC)no2)no1                0.0
5  Cc1cc(C(=O)NC2COc3cc(-c4noc(C)n4)ccc32)ccn1 (centres unmarked)                1.0
6  CCc1nc(-c2ccc3c(c2)CC[C@H]3NC(=O)c2ccnnc2)no1                0.0

----------
Study Target: bovine cardiac myofibrils (full-length cardiac myosin ATPase in the native sarcomere) (Bos taurus (Bovine))
Experiment Notes: Skinned bovine cardiac myofibril ATPase assay (PK/LDH-coupled)
Recorded Conditions: Ca2+ activating to 75% of maximal rate, read-out: CDMF75 IC50
satisfied if IC50 is below 4 µM. not satisfied if not; exact matches included in not satisfied.

>>> print(df.to_string())
                                    compound  qualitative_label
 0  CCc1nc(-c2ccc3c(c2)CC[C@H]3NC(=O)c2cccc(CO)c2)no1 [Compound 653]          satisfied
 1  CCc1nc(-c2ccc3c(c2)OC[C@H]3NC(=O)c2cc(C)nn2C)no1 [Compound 231]          satisfied
 2  Cc1cc(C(=O)N[C@@H]2CCc3cc(-c4noc(C(F)F)n4)ccc32)cnn1 [Compound 687]      not satisfied
 3  CCc1nc(-c2ccc3c(c2)CC[C@H]3NC(=O)c2cnn(C3CN(C(=O)NC)C3)c2)no1 [Compound 479]      not satisfied
 4  O=C(N[C@@H]1CCc2cc(-c3noc(C(F)F)n3)ccc21)c1cc(CO)ccn1 [Compound 667]          satisfied
 5  CCNC(=O)N[C@@H]1CCc2cc(-c3noc(C(F)F)n3)ccc21 [Compound 296]      not satisfied
 6  Cc1cnnc(-c2ccc3c(c2)CC[C@H]3NC(=O)c2ccnn2C)c1 [Compound 383]      not satisfied
 7  O=C(N[C@@H]1CCc2cc(-c3noc(C(F)F)n3)ccc21)N1CCCC1 [Compound 300]      not satisfied
 8  CCc1nc(-c2ccc3c(c2)OC[C@H]3NC(=O)NCCO)no1 [Compound 745]          satisfied
 9  COCCn1cc(C(=O)N[C@@H]2CCc3cc(-c4noc(C(C)C)n4)ccc32)cn1 [Compound 511]      not satisfied
10  COC(=O)c1nc(-c2ccc3c(c2)CCC3NC(=O)c2cn(C)nc2C)no1 (centres unmarked) [Compound 78]      not satisfied
11  Cc1ncccc1C(=O)NC1CCc2cc(-c3noc(C(F)F)n3)ccc21 (centres unmarked) [Compound 39]      not satisfied
12  CCc1nc(-c2ccc3c(c2)OCC3NC(=O)c2cc(C)nn2C)no1 (centres unmarked) [Compound 230]          satisfied
13  CC(=O)N[C@@H]1COc2cc(-c3noc(C4CC4)n3)ccc21 [Compound 457]      not satisfied
14  O=C1C[C@H](C(=O)N[C@@H]2CCc3cc(-c4noc(C5CC5)n4)ccc32)N1 [Compound 315]      not satisfied
15  Cc1cc(C(=O)N[C@@H]2CCc3cc(-c4noc(C5CCC5)n4)ccc32)ccn1 [Compound 412]          satisfied
16  Cn1nnc(C(=O)NC2COc3cc(-c4noc(C5CC5)n4)ccc32)n1 (centres unmarked) [Compound 234]      not satisfied

----------
Study Target: bovine cardiac myofibrils (full-length cardiac myosin ATPase in the native sarcomere) (Bos taurus (Bovine))
Experiment Notes: Skinned bovine cardiac myofibril ATPase assay (PK/LDH-coupled)
Type: biochemical
Recorded Conditions: Ca2+ activating to 75% of maximal rate, read-out: CDMF75 IC50
pIC50: −log10 of the molar value.
pIC50: recorded values
Measured Property: pIC50

In [3]: df
Out[3]:
                                   molecule  measured_property  meas_value
0  COCc1nc(-c2ccc3c(c2)CC[C@H]3NC(=O)c2cn(C)nc2C)no1 [Compound 182]              pIC50        5.39
1  Cc1nc(-c2ccc3c(c2)CC[C@H]3NC(=O)c2cc(C(F)F)ccn2)no1 [Compound 732]              pIC50        5.47
2  Cc1cc(C(=O)N[C@@H]2CCc3cc(-c4noc(C(F)F)n4)ccc32)n(C)n1 [Compound 101]              pIC50        5.96
3  CCc1nc(-c2ccc3c(c2)OC[C@H]3NC(=O)N2CC[C@@H](O)C2)no1 [Compound 740]              pIC50        5.16

----------
IC50 values, listed per item
Study Target: bovine cardiac myofibrils (full-length cardiac myosin ATPase in the native sarcomere) (Bos taurus (Bovine))
Experiment Notes: Skinned bovine cardiac myofibril ATPase assay (PK/LDH-coupled)
Recorded Conditions: Ca2+ activating to 75% of maximal rate, read-out: CDMF75 IC50
Measured Property: IC50 (µM)

>>> df
                                    compound  unit_string  value_qualifier  meas_value
 0  CCc1nc(-c2ccc3c(c2)CCCC3NC(=O)c2ccnn2C)no1 (stereo not shown)           µM                =         2.5
 1  Cc1nc(-c2ccc3c(c2)CCC3NC(=O)c2ncnn2C)no1 (stereo not shown)           µM                =         9.8
 2  Cc1nn(C)cc1C(=O)N[C@@H]1CCc2cc(-c3noc(C(F)F)n3)ccc21           µM                =         1.9
 3  Cn1nccc1C(=O)N[C@@H]1CCc2cc(-c3noc(C4CC4)n3)ccc21           µM                =         0.8
 4  Cc1nn(C)cc1C(=O)N[C@@H]1CCc2cc(-c3noc(C(C)C)n3)ccc21           µM                =         2.2
 5  Cc1nn(C)cc1C(=O)N[C@@H]1CCc2cc(-c3noc(C4CCC4)n3)ccc21           µM                =         1.2
 6  CCc1nc(-c2ccc3c(c2)CC[C@H]3NC(=O)c2cnn(C(C)CO)c2)no1 (stereo partly shown)           µM                =         8.7
 7  Cc1ncc(C(=O)NC2CCc3cc(-c4noc(C(F)F)n4)ccc32)o1 (stereo not shown)           µM                =         6.7
 8  Cc1cc(C(=O)N[C@@H]2CCc3cc(-c4nc(C)co4)ccc32)ccn1           µM                >        39.2
 9  Nc1cc(C(=O)NC2CCc3cc(-c4noc(C(F)F)n4)ccc32)ccn1 (stereo not shown)           µM                =         2.6
10  Cn1cc(C(=O)N[C@@H]2CCc3cc(-c4noc(C(F)F)n4)ccc32)cn1           µM                =         2.4
11  [2H]C([2H])([2H])c1nc(-c2ccc3c(c2)CC[C@H]3NC(=O)c2nnn(C)n2)no1           µM                =         4.7
12  O=C(N[C@@H]1COc2cc(-c3noc(C(F)F)n3)ccc21)c1cc(CO)ccn1 [Compound 707]           µM                =         3.6
13  CCc1nc(-c2ccc3c(c2)CC[C@H]3NC(=O)c2cc(C)ncn2)no1           µM                =         1.8
14  Cc1nn(C)cc1C(=O)NC1COc2cc(-c3noc(C(F)F)n3)ccc21 (stereo not shown)           µM                =         3.6
15  CCc1nc(-c2cc(F)c3c(c2)CC[C@H]3NC(=O)c2cnn(C)c2)no1           µM                =         1.5
16  Cc1cc(C(=O)N[C@H]2CCc3cc(-c4nnn(C)n4)ccc32)ccn1           µM                >        39.2
17  Cn1cc(C(=O)N[C@@H]2CCc3cc(-c4nc(C5CC5)no4)ccc32)cn1           µM                =         5.7
18  Cc1cc(-c2ccc3c(c2)CC[C@H]3NC(=O)c2ccnn2C)no1           µM                =         1.2
19  O=C1CC[C@H](C(=O)N[C@@H]2CCc3cc(-c4noc(C5CC5)n4)ccc32)N1           µM                >        39.2
20  O=C(N[C@@H]1CCc2cc(-c3noc(C(F)F)n3)ccc21)c1cccc(CO)c1F           µM                =         7.2
21  CCc1nc(-c2ccc3c(c2)CC[C@H]3NC(=O)c2cnn(CCCO)c2C)no1           µM                =         2.5
22  CCc1nc(-c2ccc3c(c2)CC[C@H]3NC(=O)c2ccc(=O)n(CC(=O)O)c2)no1           µM                =        14.7
23  Cc1nc(C)c(C(=O)NC2CCc3cc(-c4noc(C(F)F)n4)ccc32)o1 (stereo not shown)           µM                =         4.6
24  CCc1nc(-c2ccc3c(c2)CC[C@H]3NC(=O)c2nnn(C)n2)no1           µM                =         0.9
25  CCc1cc(-c2ccc3c(c2)CC[C@H]3NC(=O)c2nnn(C)n2)no1           µM                =         0.8
26  CCOCCn1cc(C(=O)N[C@@H]2CCc3cc(-c4noc(CC)n4)ccc32)cn1           µM                =         4.1
27  O=C(N[C@@H]1CCc2cc(-c3noc(C(F)F)n3)ccc21)c1ccc(=O)n(CCO)c1           µM                =         8.1
28  Cc1nc(-c2ccc3c(c2)CC[C@H]3NC(=O)c2ocnc2C)no1           µM                =         1.5
29  COCc1nc(-c2ccc3c(c2)OC[C@H]3NC(=O)c2ccnn2C)no1           µM                =         2.1
30  [2H]C([2H])([2H])c1noc(-c2ccc3c(c2)OC[C@H]3NC(=O)c2ccnn2C)n1           µM                =         2.4
31  Cn1nccc1C(=O)N[C@@H]1CCc2cc(-c3ccccc3)ccc21           µM                =        15.7
32  O=C(NC1CCC1)N[C@@H]1CCc2cc(-c3noc(C(F)F)n3)ccc21           µM                >        39.2
33  COCc1nc(-c2ccc3c(c2)CC[C@H]3NC(=O)c2cnn(C)c2C)no1           µM                =           4
